growth inhibition reference
assay overview: NCI Yeast Anticancer Drug Screen. Data for the cln2 rad14 strain (AID 165);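 note: 0% = growth equal to vehicle treated cultures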
condition: S. cerevisiae cln2 rad14 strain, at 50.0 µM, stronger effect = higher value
This is part of a sample that, as a whole, favours compounds with a hit. Of some 79,000 tested, about 15% had one in any assay.
Quick note: give the figure in %, leave out the unit.

Please report the measured growth inhibition for CCN(CC)CC#N
-0.25

Write down growth inhibition measured for item CC1=C[C@H]2O[C@@H]3[C@H](OC(=O)CCl)[C@@H](O)[C@](C)(C2(COC(=O)CCl)CC1)[C@@]31CO1 (some centres undefined)
91.6

Tell me its growth inhibition given CN(C(=O)COc1ccc([N+](=O)[O-])cc1Cl)c1ccc(S(=O)(=O)F)cc1 as the entry.
-10.4

Indicate the recorded growth inhibition value for this molecule: c1ccc(C(c2ccccc2)C2CCNCC2)cc1
16.2

All values here come from PubChem BioAssay (NCI).
